target: Endonuclease III-like protein 1 (Homo sapiens) (UniProt P78549); conditions: Compound Concentration 10.0 uM, Hit No;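 note: enzyme assay tracking NTHL1 cutting and release of a quenched double-stranded DNA oligo substrate, read as fluorescence at 594 nm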
Sequence (P78549 whole entry): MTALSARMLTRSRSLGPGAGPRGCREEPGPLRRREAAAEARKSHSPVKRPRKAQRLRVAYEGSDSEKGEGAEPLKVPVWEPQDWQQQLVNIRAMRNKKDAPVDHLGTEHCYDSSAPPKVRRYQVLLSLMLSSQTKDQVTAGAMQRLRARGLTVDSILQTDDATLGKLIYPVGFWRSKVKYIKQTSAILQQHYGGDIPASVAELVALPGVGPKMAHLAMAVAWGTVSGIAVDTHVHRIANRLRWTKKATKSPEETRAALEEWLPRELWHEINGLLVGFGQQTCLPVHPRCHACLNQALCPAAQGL
Description: Inhibition of NTHL1 by quantifying inhibition of NTHL1-mediated cleavage and dissociation of quenched duplex DNA oligonucleotides, measured as fluorescence at 594 nm.
Where inhibition equals or exceeds 3%, the correct label is met; where it does not, the label is not met.

smiles | label
CCNC(=O)[C@H]1O[C@@H](n2cnc3c(N)nc(NCCc4ccc(CCC(=O)O)cc4)nc32)[C@H](O)[C@@H]1O | not met

Can `O=C(O)c1ccnc(N2CC(O)(c3ccc(OCc4c(-c5c(Cl)cccc5Cl)noc4C4CC4)cc3Cl)C2)c1` be said to have inhibition at or above 3%? met

Evaluate `CC(=O)NCCc1c(Cc2ccccc2)[nH]c2ccccc12` : inhibition at minimum 3%? not met

Record `CN(C)CCn1cc(S(=O)(=O)c2cccc(F)c2)c2cccnc21` ; criterion: inhibition no lower than 3%. Met? met

====

target: Uracil-DNA glycosylase (Homo sapiens) (UniProt P13051); details: Compound Concentration 10.0 uM, Hit No;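 note: UNG excision on a quenched double-stranded DNA oligo probe, with APE1 added for strand incision and turnover, read as fluorescence at 594 nm as strands separate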
Sequence (P13051 whole entry): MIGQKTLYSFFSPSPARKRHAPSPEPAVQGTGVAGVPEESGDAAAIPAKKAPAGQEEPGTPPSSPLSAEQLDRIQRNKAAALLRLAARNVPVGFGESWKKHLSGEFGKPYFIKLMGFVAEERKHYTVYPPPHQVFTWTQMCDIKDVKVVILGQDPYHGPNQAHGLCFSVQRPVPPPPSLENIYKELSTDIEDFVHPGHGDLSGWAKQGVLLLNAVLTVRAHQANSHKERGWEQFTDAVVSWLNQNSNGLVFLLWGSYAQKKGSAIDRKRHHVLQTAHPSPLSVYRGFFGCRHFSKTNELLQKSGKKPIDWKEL
Description: Inhibition of UNG by quantifying inhibition of UNG-mediated cleavage and dissociation of quenched duplex DNA oligonucleotides, measured as fluorescence at 594 nm. To generate a functional strand incision and increase turn-over this assay is coupled to APE1.
Where a SMILES comes first, the peptide text is derived from it.
attribute-measured: inhibition (%)
One number for each entry, in %.

Solved entries:
compound | target-under-test | unit-abbreviation | test-result
CC[C@H](C)[C@H](NC(=O)[C@H](Cc1ccc(O)cc1)NC(=O)[C@@H](NC(=O)[C@H](CCCNC(=N)N)NC(=O)[C@@H](N)CC(=O)O)C(C)C)C(=O)N[C@@H](Cc1cnc[nH]1)C(=O)N[C@H](C)C(=O)O (HELM PEPTIDE1{D.R.V.Y.I.H.[dA]}$$$$V2.0) | Uracil-DNA glycosylase (Homo sapiens) (UniProt P13051) | % | -2.81
CCc1ccc(N(CC(C)C)S(=O)(=O)c2ccc(OCC3CCOCC3)c(CO)c2)cc1 | Uracil-DNA glycosylase (Homo sapiens) (UniProt P13051) | % | 5.13

Could you share what inhibition was measured for `COc1ccc(CC(=O)NCc2ccccc2-c2ccccc2C(=O)NCc2ccc(F)cc2F)cc1` , tested on Uracil-DNA glycosylase (Homo sapiens) (UniProt P13051)? 1.16

====

Give inhibition for every item shown.
target: UniProt Q969S2; settings: Compound Concentration 10.0 uM, Hit No
Sequence (Q969S2 whole entry): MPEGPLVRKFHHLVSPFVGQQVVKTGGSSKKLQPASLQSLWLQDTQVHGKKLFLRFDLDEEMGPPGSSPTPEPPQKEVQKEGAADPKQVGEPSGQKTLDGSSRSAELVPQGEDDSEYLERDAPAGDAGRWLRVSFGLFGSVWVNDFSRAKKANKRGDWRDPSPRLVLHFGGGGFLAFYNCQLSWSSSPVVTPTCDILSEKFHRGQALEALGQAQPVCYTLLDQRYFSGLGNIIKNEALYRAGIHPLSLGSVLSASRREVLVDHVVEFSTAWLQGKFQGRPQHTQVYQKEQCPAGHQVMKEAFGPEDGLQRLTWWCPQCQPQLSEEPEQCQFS
Description: Inhibition of NEIL2 by quantifying inhibition of NEIL2-mediated cleavage and dissociation of quenched duplex DNA oligonucleotides, measured as fluorescence at 594 nm.
Answers are plain numbers, in %.

Would you mind listing inhibition for each of the following compounds?
1. Nc1nc(NCc2ccccc2)nc(-c2cccc(CO)c2)n1
2. CC(C)COc1ccc(CNC(=O)N(Cc2ccc(F)cc2)C2CCN(C)CC2)cc1
3. Cc1oc2ccccc2c1Cc1cc(I)c(OCC(=O)O)c(I)c1
4. CSc1ccc(C(=O)N[C@@H]2CCCC[C@@H]2NC(=O)CNC(=O)c2cc(C(F)(F)F)ccc2NC(=O)NC(C)C)cc1
5. c1ccc(C2CN3CCC2CC3)cc1 (stereo not given)

1: -1.51; 2: 8; 3: 3.34; 4: 14.5; 5: -3.92

====

biological target: Endonuclease 8-like 2 (Homo sapiens); conditions: Compound Concentration 10.0 uM, Hit No;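 note: fluorescence at 594 nm reports NEIL2 cutting and release of a quenched double-stranded DNA oligo substrate, reduced signal read as inhibition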
attribute-measured: inhibition (%)
Numbers only, in %.

compound | target-under-test | unit-abbreviation | inhibition
Cn1c(SCc2ccc(C(C)(C)C)cc2)nc(N)cc1=O | Endonuclease 8-like 2 (Homo sapiens) | % | 5.25

Give me inhibition for each of these compounds, listed below.
1. Cc1cc(Cn2nnc3c(-c4ccco4)nc(N)nc32)ccc1N
2. COC(c1ccccc1)(c1ccccc1)[C@H](Oc1nc(C)cc(C)n1)C(=O)O
3. CCCCCNC(=O)N1CCC(CN(Cc2ccc(Cl)cc2)Cc2ccc([N+](=O)[O-])s2)C1 (stereo not given)
4. COc1cc2c(cc1CC=C(C)C)C(=O)C[C@@H](c1ccc(O)cc1)O2

1: 2.26; 2: 10.8; 3: -1.51; 4: -5.59

====

Answer each item with its documented inhibition.
target: Single-strand selective monofunctional uracil DNA glycosylase (Homo sapiens); settings: Compound Concentration 10.0 uM, Hit No;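 note: enzymatic SMUG1 assay coupled with APE1, reading fluorescence at 594 nm released when a quenched double-stranded DNA oligonucleotide substrate is cleaved and separated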
Description: Inhibition of SMUG1 by quantifying inhibition of SMUG1-mediated cleavage and dissociation of quenched duplex DNA oligonucleotides, measured as fluorescence at 594 nm. To generate a functional strand incision and increase turn-over this assay is coupled to APE1.

Consider the reported inhibition for these compounds:
smiles | inhibition
CO[C@@H](C)c1c(Nc2ccc([C@@H](N(C)C(=O)C3CCS(=O)(=O)CC3)C(F)(F)F)cc2)cnc2cc(Cl)nn12 | 13.4%
CCc1cccc(CC)c1NC(=O)c1nn(C)c2c1CCc1cnc(Nc3ccc(C(=O)NC4CCN(C)CC4)cc3OC(F)(F)F)nc1-2 | 13.4%
Cc1onc(-c2ccc(F)cc2)c1COc1ccc(C(=O)N2CCS(=O)(=O)CC2)cn1 | -9.34%

Fill in inhibition for each of the 4 compounds listed.
1. CCOc1nc2cccc(C(=O)O)c2n1Cc1ccc(-c2ccccc2-c2nnn[nH]2)cc1
2. O=S1(=O)NCN(C2CC2)c2ccc(F)cc21
3. Cc1nc(-c2ccc(C(F)(F)F)cc2)sc1COc1ccc([C@H](CC(=O)O)c2ccon2)cc1
4. CC(C)CCC[C@@H](C)[C@H]1CC[C@H]2[C@@H]3[C@H](O)C=C4C[C@@H](O)CC[C@]4(C)[C@H]3CC[C@]12C

["-0.0333%", "-1.26%", "7.09%", "-3.67%"]

inhibition lookup needed for `CC(=O)Nc1nc2c(Oc3cc(-c4ccc(C(F)(F)F)cc4)ncn3)cccc2s1` , thanks. -4.87%

====

molecular target: Methyl-CpG-binding domain protein 4 (Homo sapiens); details: Compound Concentration 10.0 uM, Hit No;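 note: MBD4 activity read as fluorescence at 594 nm from cleavage and release of a quenched duplex DNA oligonucleotide, with APE1 coupled to incise the strand and raise turnover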
Description: Inhibition of MBD4 by quantifying inhibition of MBD4-mediated cleavage and dissociation of quenched duplex DNA oligonucleotides, measured as fluorescence at 594 nm. To generate a functional strand incision and increase turn-over this assay is coupled to APE1.
*1 amine or outer side, *2 acyl side, *3 side chain or, on linkers, in order; H or OH if unused. Where a SMILES comes first, the peptide text is derived from it. Bridges are numbered along the chain shown (N, C = ends). X1 = O=C(CCC[*:2])[*:1]
attribute-measured: inhibition

Use the examples below as a reference point.
compound | inhibition
C[C@H](NC(=O)c1c(C(F)F)nn(C)c1Oc1cccc(C(F)(F)F)c1)c1ccc(C(=O)O)cc1 | -2.06%
CC[C@H](C)C(=O)O[C@H]1C[C@@H](C)C=C2C=C[C@H](C)[C@H](CC[C@@H]3C[C@@H](O)CC(=O)O3)[C@H]21 | 71.5%
CC(C)(C)NC[C@H](O)COc1nsnc1N1CCOCC1 | 2.07%
CCC(=O)N[C@H]1CC[C@@H](C(=O)N(C)c2ccc(-c3nc4ccccc4o3)cc2)C1 | 62.4%
O=C(c1cc2c(cc1F)OC(c1ccc(F)cc1)(c1ccc(Cl)cc1Cl)O2)N1CCOCC1 (centres undefined) | -9.38%
CC(=O)Nc1nc(CN2CCC[C@H](Cc3cc(C)nc(C)c3)C2)cs1 | 81.4%
N[C@@H](CCP(=O)(O)O)C(=O)O | 13%
CCOC(=O)c1ncn2c1CN(C)C(=O)c1cc(F)ccc1-2 | -4.21%

Give inhibition for each listed item.
1. CC[C@H](C)[C@@H]1NC(=O)[C@H](Cc2ccc(OC)cc2)NC(=O)CCCSC[C@@H](C(=O)N2CCC[C@H]2C(=O)N[C@@H](CC(C)C)C(=O)NCC(N)=O)NC(=O)[C@H](CC(N)=O)NC(=O)[C@H](CCC(N)=O)NC1=O (Y(Me)IQNCPLG-NH2; linker N-5 via X1)
2. O=C(O)CCCCCC[C@H]1C(=O)NC(=O)N1CCC(O)C1CCCCC1 (some centres undefined)
3. CC(=O)C1=C(C)N(c2cccc(C(F)(F)F)c2)C(=O)N[C@H]1c1ccc(C#N)nc1
4. CC(C1CC2CCC1C2)n1c(S)nnc1-c1ccco1 (centres undefined)

["-5.48%", "9.44%", "60.5%", "23.6%"]

List the reported inhibition of each compound below.
1. CCS(=O)(=O)c1cc2cc(C[C@](O)(CC(C)(C)c3ccc(F)cc3C(N)=O)C(F)(F)F)[nH]c2cn1
2. CN(C)[C@@H]1CCN(c2cc(-c3ccccc3)nc3ccnn23)C1
3. O=S1(=O)NCN(C2CC2)c2ccc(F)cc21
4. C[C@H](NC(=O)Cc1ccc(-c2ccc3cccnc3n2)cc1)c1ccc(-c2ccc(F)c(C(F)(F)F)c2)cc1
5. O=C1NCCc2c(OCCCCN3CCCCC3)cccc21
6. CC1(C)CCC[C@]2(C)[C@@H](C=O)C(C=O)=CC[C@@H]12
7. Cc1cc(C)c(NC(=O)C2CC3CCC2C3)c(C)c1 (centres undefined)

["51.2%", "79.8%", "0.854%", "22.6%", "2.31%", "54.4%", "26.4%"]

====

biological target: N-glycosylase/DNA lyase (Homo sapiens); conditions: Compound Concentration 10.0 uM, Hit No
Description: Inhibition of OGG1 by quantifying inhibition of OGG1-mediated cleavage and dissociation of quenched duplex DNA oligonucleotides, measured as fluorescence at 594 nm. To generate a functional strand incision and increase turn-over this assay is coupled to APE1.
attribute-measured: inhibition (%)
One number for each entry, in %.

smiles | unit-abbreviation | test-result
Clc1ccc(OC[C@H]2CCN2)cn1 | % | -5.75
CC(C)(O)c1cn(-c2ccc(-c3cccc(S(C)(=O)=O)c3)cc2)c(C(C)(C)c2ccccc2Cl)n1 | % | 5
CC[C@H](C(=O)Nc1ccccc1N1CCCC1)c1ccccc1 | % | 0.561
CCc1nnc(NS(=O)(=O)c2ccc(NC(=S)NC(=O)/C=C/c3ccc(F)cc3)cc2)s1 | % | 12.1

Let's switch to this compound now.
Bench note: what inhibition did `O=C(O)CCC/C=C\C[C@H]1C(=O)C[C@@H](O)[C@@H]1/C=C/[C@@H](O)CCc1ccccc1` show? -5.63
